// data source = paper PMC9105102

# target_under_test: GnRH-R (membranes of human pituitary) (Homo sapiens)
# Construct: GnRH-Rs expressed on human pituitary and human prostate cancer cells; from tissue; host or cells: normal human pituitary (anterior lobe), autopsy; membrane homogenate
# Sequence (P30968 whole entry): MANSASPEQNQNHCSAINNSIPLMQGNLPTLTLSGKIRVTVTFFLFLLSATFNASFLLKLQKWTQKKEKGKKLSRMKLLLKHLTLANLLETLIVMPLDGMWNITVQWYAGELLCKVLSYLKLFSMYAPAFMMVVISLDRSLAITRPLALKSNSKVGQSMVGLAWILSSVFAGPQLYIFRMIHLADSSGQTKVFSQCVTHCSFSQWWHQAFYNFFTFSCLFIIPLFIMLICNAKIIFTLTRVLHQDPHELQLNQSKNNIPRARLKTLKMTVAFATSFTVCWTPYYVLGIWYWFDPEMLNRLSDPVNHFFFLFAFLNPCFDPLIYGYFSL
# assay_name: Radioligand competition assay, displacement of [125I]-GnRH-I-[6D-Trp] (triptorelin), human pituitary membranes
# Format: binding
quantity_name: IC50

Take a look at these entries with their results.
{"compound_string": "CCCC(=O)NCCCC[C@H](NC(=O)[C@H](Cc1c[nH]c2ccccc12)NC(=O)[C@H](Cc1c[nH]cn1)NC(=O)[C@@H]1CCC(=O)N1)C(=O)N[C@@H](Cc1c[nH]cn1)C(=O)N[C@@H](CC(=O)O)C(=O)N[C@@H](Cc1c[nH]c2ccccc12)C(=O)N[C@@H](CCCCNC(=O)CCCC(=O)N[C@H](C(=O)N[C@@H](C)C(=O)Nc1ccc(COC(=O)N[C@H]2C[C@H](O[C@H]3C[C@](O)(C(C)=O)Cc4c(O)c5c(c(O)c43)C(=O)c3c(OC)cccc3C5=O)O[C@@H](C)[C@H]2O)cc1)C(C)C)C(=O)N1CCC[C@H]1C(=O)NCC(N)=O", "IC50": "17 nM"}
{"compound_string": "CCCC(=O)NCCCC[C@H](NC(=O)[C@H](Cc1c[nH]c2ccccc12)NC(=O)[C@H](Cc1c[nH]cn1)NC(=O)[C@@H]1CCC(=O)N1)C(=O)N[C@@H](Cc1c[nH]cn1)C(=O)N[C@@H](CC(=O)O)C(=O)N[C@@H](Cc1c[nH]c2ccccc12)C(=O)N[C@@H](CCCCNC(=O)CCCC(=O)N[C@H]1C[C@H](O[C@H]2C[C@](O)(C(C)=O)Cc3c(O)c4c(c(O)c32)C(=O)c2c(OC)cccc2C4=O)O[C@@H](C)[C@H]1O)C(=O)N1CCC[C@H]1C(=O)NCC(N)=O", "IC50": "9.7 nM"}
{"compound_string": "CCCC(=O)NCCCC[C@H](NC(=O)[C@H]1Cc2ccccc2CN1C(=O)[C@@H]1CCC(=O)N1)C(=O)N[C@@H](Cc1c[nH]cn1)C(=O)N[C@@H](CC(=O)O)C(=O)N[C@@H](Cc1c[nH]c2ccccc12)C(=O)N[C@@H](CCCCNC(=O)CCCC(=O)N(C)CCN(C)C(=O)O[C@@H](C(=O)O[C@H]1C[C@@]2(O)[C@@H](OC(=O)c3ccccc3)[C@@H]3[C@]4(OC(C)=O)CO[C@@H]4C[C@H](O)[C@@]3(C)C(=O)[C@H](OC(C)=O)C(=C1C)C2(C)C)[C@@H](NC(=O)c1ccccc1)c1ccccc1)C(=O)N1CCC[C@H]1C(=O)NCC(N)=O", "IC50": "23.4 nM"}

Exercise: Give a short answer stating reported IC50 for CCCC(=O)NCCCC[C@H](NC(=O)[C@H]1Cc2ccccc2CN1C(=O)[C@@H]1CCC(=O)N1)C(=O)N[C@@H](Cc1c[nH]cn1)C(=O)N[C@@H](CC(=O)O)C(=O)N[C@@H](Cc1c[nH]c2ccccc12)C(=O)N[C@@H](CCCCNC(=O)CCCC(=O)N[C@H]1C[C@H](O[C@H]2C[C@](O)(C(C)=O)Cc3c(O)c4c(c(O)c32)C(=O)c2c(OC)cccc2C4=O)O[C@@H](C)[C@H]1O)C(=O)N1CCC[C@H]1C(=O)NCC(N)=O .
Solution: 36.3 nM
